Source of measurements: paper PMC9412104

- System Tested: PtGSTU19 (Populus trichocarpa, UniProt B9HKX9)
- Sequence (B9HKX9 entry or part of it): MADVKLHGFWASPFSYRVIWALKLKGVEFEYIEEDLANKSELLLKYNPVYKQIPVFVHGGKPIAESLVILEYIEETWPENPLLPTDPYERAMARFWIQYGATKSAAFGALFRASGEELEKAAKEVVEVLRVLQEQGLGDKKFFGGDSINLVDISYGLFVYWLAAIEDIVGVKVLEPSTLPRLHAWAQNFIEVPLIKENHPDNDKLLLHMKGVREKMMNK
- Method Summary: Competition (inhibition) assay of GSH-conjugation with PITC as substrate
- Type: biochemical
Reported Metric: Ki (µM)
Just the number please, in µM, no unit attached.

Entry O=c1c(O)c(-c2ccc(O)cc2O)oc2cc(O)cc(O)c12 [Morin] ; assay system PtGSTU19 (Populus trichocarpa, UniProt B9HKX9); Ki recorded at 72.9

Form field, Ki with PtGSTU19 (Populus trichocarpa, UniProt B9HKX9), item O=c1cc(-c2ccccc2)oc2cc(O)c(O)c(O)c12 [Baicalein] : 35.2
